Biological target: UniProt O33587
Experiment: AgrC inhibition YFP reporter gene assay, S. aureus group-II (AH430)
Format: cell-based
Conditions: group-II; 10 μM where stated; YFP fluorescence relative to 1% DMSO control
Positions of bridges follow the written chain, without caps; N, C: chain ends. Non-standard residues stand in square brackets, D forms with d. Residues, ends and D or L forms follow the SMILES beside them. Dap = NC[CH](N)C(=O)O; Aoc = NCCCCCCCC(=O)O
Observable: AgrC activity, preliminary screening

Data request, read-out AgrC activity, preliminary screening, for CC(=O)N[C@H]1CNC(=O)[C@H](Cc2ccccc2)NC(=O)[C@H](Cc2ccccc2)NC(=O)CCCCCCCCNC1=O [n8FF amide] minimal levels

Data request, read-out AgrC activity, preliminary screening, for CC(=O)N[C@H]1CSC(=O)[C@H](Cc2ccccc2)NC(=O)[C@H](Cc2ccccc2)NC(=O)CCCCCCCNC1=O [n7FF] (Ac-C[Aoc]FF; thioester 1-C) minimal levels

Data request, read-out AgrC activity, preliminary screening, for CC(=O)NC1CNC(=O)C(Cc2ccccc2)NC(=O)C(Cc2ccccc2)NC(=O)CCCCCCCNC1=O (centres unmarked) [n7FF amide] (Ac-[Dap][Aoc]FF; lactam 1-C; configuration not given here) minimal levels

====

// IC50 lookup, one value per entry
Molecular target: UniProtKB O33590
Experiment: AgrC inhibition YFP reporter gene assay, S. aureus group-III (AH1747)
Format: cell-based
Conditions: read-out: IC50 Group-III; Table 3, against S. aureus AgrC
Procedure: Reporter Gene Assays: The peptidomimetics were assayed for AgrC I-IV inhibition using the four YFP reporter strains listed in Table 1. Peptide stock solutions were diluted with DMSO in serial dilutions, and 2 μL of the diluted solution was added to each of the wells in a black, clear-bottom 96-well microtiter plate (Costar). […] Fluorescence (excitation 500 nm/emission 540 nm) and optical density at 600 nm (OD600) of each well were then recorded using a BioTek Synergy 2 plate reader. […]
Positions of bridges follow the written chain, without caps; N, C: chain ends. Non-standard residues stand in square brackets, D forms with d. Residues, ends and D or L forms follow the SMILES beside them. Phe(3-Cl) = N[C@@H](Cc1cccc(Cl)c1)C(=O)O; Phe(4-Cl) = N[C@@H](Cc1ccc(Cl)cc1)C(=O)O; Phe(3-F) = N[C@@H](Cc1cccc(F)c1)C(=O)O; Cha = N[C@@H](CC1CCCCC1)C(=O)O; AEEA = NCCOCCOCC(=O)O; Aoc = NCCCCCCCC(=O)O
Give the number; nM is assumed, so skip it.

Worked cases, answers included:
Data request, read-out IC50, for CC(=O)N[C@H]1CSC(=O)[C@H](Cc2cccc(F)c2)NC(=O)[C@H](CC2CCCCC2)NC(=O)CCCCCCCNC1=O [n7Cha3fF] (Ac-C[Aoc][Cha][Phe(3-F)]; thioester 1-C) 19

Data request, read-out IC50, for CC(=O)N[C@H]1CSC(=O)[C@H](Cc2cccc(F)c2)NC(=O)[C@H](CC2CCCCC2)NC(=O)COCCOCCNC1=O [n7OCha3fF] (Ac-C[AEEA][Cha][Phe(3-F)]; thioester 1-C) 35

Data request, read-out IC50, for CC(=O)N[C@H]1CSC(=O)[C@H](Cc2cccc(F)c2)NC(=O)[C@H](Cc2ccccc2)NC(=O)COCCOCCNC1=O [n7OF3fF] (Ac-C[AEEA]F[Phe(3-F)]; thioester 1-C) 171

Data request, read-out IC50, for CC(=O)N[C@H]1CSC(=O)[C@H](Cc2cccc(Cl)c2)NC(=O)[C@H](Cc2ccccc2)NC(=O)COCCOCCNC1=O [n7OF3clF] (Ac-C[AEEA]F[Phe(3-Cl)]; thioester 1-C) 1140

Data request, read-out IC50, for CC(=O)N[C@H]1CSC(=O)[C@H](Cc2ccccc2)NC(=O)[C@H](Cc2ccccc2)NC(=O)COCCOCCNC1=O [n7OFF] (Ac-C[AEEA]FF; thioester 1-C) 332

Data request, read-out IC50, for CC(=O)N[C@H]1CSC(=O)[C@H](Cc2ccc(Cl)cc2)NC(=O)[C@H](Cc2ccccc2)NC(=O)COCCOCCNC1=O [n7OF4clF] (Ac-C[AEEA]F[Phe(4-Cl)]; thioester 1-C) 2480

Next:
Data request, read-out IC50, for CC(=O)N[C@H]1CSC(=O)[C@H](Cc2ccccc2)NC(=O)[C@H](CC2CCCCC2)NC(=O)COCCOCCNC1=O [n7OChaF] (Ac-C[AEEA][Cha]F; thioester 1-C) 205
